The values you see were collected from paper PMC11218446.

assay: Lipophilicity, miniaturized shake-flask log D; assay type: physicochemical; conditions: 96-well, 1-octanol/phosphate buffer pH 7.4, shaken 2 h at 25°C, HPLC-UV
Measurement kind: logD at 2 h
Please give only the number in your answer, with no unit.

Entry CCCCCCCC1CC(=O)N[C@H](CC(C)C)C(=O)N[C@@H](CO)C(=O)N[C@@H]([C@@H](C)O)C(=O)N[C@H](Cc2ccccc2)C(=O)N[C@@H](CC(C)C)C(=O)O1 (stereo partly shown) : reported logD at 2 h = ?
2.5
